Biological target: T1, recombinant human NKp30 extracellular domain, his-tagged (human, UniProt O14931 19-135)
T1 construct: BLI used human NKp30 bought from Abcam (his-tagged ECD); also called rh NKp30 ECD; human NKp30 (Abcam); not shown: his tag
T1 sequence: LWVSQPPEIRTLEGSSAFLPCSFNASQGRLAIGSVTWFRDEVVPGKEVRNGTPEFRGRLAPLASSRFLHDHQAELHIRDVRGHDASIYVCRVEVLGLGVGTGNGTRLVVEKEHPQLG
Assay: BLI as in Example 1, maximum binding capacity
test-readout: Emax (nm)

[[record]]
binder = "VHH2.6 (humanized) (VHH, expressed and measured by BLI 'as described in Experiment 1' (there: bispecific SEEDbody on anti-human Fc sensors)) VHH: EVQLVESGGGVVQPGGSLRLSCAVSGQTWTNYHIGWVRQAPGKGLESVASIEWGGRGTYATDSVKGRFTISRDNAKNTVYLQMNSLRAEDTAVYYCAAQSSSRSPLESNYDYWGQGTLVTVSS"
reported_result = "0.07 nm"

[[record]]
binder = "VHH2.2 (humanized) (VHH, expressed and measured by BLI 'as described in Experiment 1' (there: bispecific SEEDbody on anti-human Fc sensors)) VHH: EVQLVESGGGVVQPGGSLRLSCAVSGQTWTNYHIGWFRQAPGKARESVASIEWGGRGTYATDSVKGRFTISRDNAKNTVYLQMNSLRAEDTAVYYCAAQSSSRSPLESNYDYWGQGTLVTVSS"
reported_result = "0.15 nm"

[[record]]
binder = "VHH2.11 (humanized) (VHH, expressed and measured by BLI 'as described in Experiment 1' (there: bispecific SEEDbody on anti-human Fc sensors)) VHH: EVQLVESGGGVVQPGGSLRLSCAASGQTWTNYHIGWFRQAPGKGLESVASIEWGGRGTYATDSVKGRFTISRDNAKNTVYLQMNSLRAEDTAVYYCAAQSSSRSPLESNYDYWGQGTLVTVSS"
reported_result = "0.16 nm"

[[record]]
binder = "VHH2.16 (humanized) (VHH, expressed and measured by BLI 'as described in Experiment 1' (there: bispecific SEEDbody on anti-human Fc sensors)) VHH: EVQLVESGGGVVQPGGSLRLSCAASGQTWTNYHIGWFRQAPGKGLEWVASIEWGGRGTYATDSVKGRFTISRDNAKNTLYLQMNSLRAEDTAVYYCAAQSSSRSPLESNYDYWGQGTLVTVSS"
reported_result = "0.11 nm"

[[record]]
binder = "VHH2.3 (humanized) (VHH, expressed and measured by BLI 'as described in Experiment 1' (there: bispecific SEEDbody on anti-human Fc sensors)) VHH: EVQLVESGGGVVQPGGSLRLSCAVSGQTWTNYHIGWFRQAPGKARESVASIEWGGRGTYATDSVKGRFTISRDNAKNTLYLQMNSLRAEDTAVYYCAAQSSSRSPLESNYDYWGQGTLVTVSS"
reported_result = "0.13 nm"

[[record]]
binder = "VHH2 (parental, as tested in Example 9) (VHH, expressed and measured by BLI 'as described in Experiment 1' (there: bispecific SEEDbody on anti-human Fc sensors)) VHH: DVQLQESGGGLVQAGGSLRLSCAVSGQTWTNYHIGWFRQAPGKARESVASIEWGGRGTYATDSVKGRFTISRDNAKNTVYLQMNSLKPEDTAVYYCAAQSSSRSPLESNYDYWGQGTQVTVSS"
reported_result = "0.17 nm"


For the binder VHH2.7 (humanized) (VHH, expressed and measured by BLI 'as described in Experiment 1' (there: bispecific SEEDbody on anti-human Fc sensors)) VHH: EVQLVESGGGVVQPGGSLRLSCAVSGQTWTNYHIGWFRQAPGKGLESVASIEWGGRGTYATDSVKGRFTISRDNAKNTLYLQMNSLRAEDTAVYYCAAQSSSRSPLESNYDYWGQGTLVTVSS , what Emax (nm) is on record? 0.1 nm

// returns reported Emax (nm) for input VHH2.15 (humanized) (VHH, expressed and measured by BLI 'as described in Experiment 1' (there: bispecific SEEDbody on anti-human Fc sensors)) VHH: EVQLVESGGGVVQPGGSLRLSCAASGQTWTNYHIGWFRQAPGKGLESVASIEWGGRGTYATDSVKGRFTISRDNAKNTLYLQMNSLRAEDTAVYYCAAQSSSRSPLESNYDYWGQGTLVTVSS 0.07 nm

Where do these numbers come from? They come from patent US20240287177A1.
